pIC50: −log10 of the molar value.
The reader will find pIC50 measurements below, all made with UniProt O60285.
Sequence (O60285 whole entry): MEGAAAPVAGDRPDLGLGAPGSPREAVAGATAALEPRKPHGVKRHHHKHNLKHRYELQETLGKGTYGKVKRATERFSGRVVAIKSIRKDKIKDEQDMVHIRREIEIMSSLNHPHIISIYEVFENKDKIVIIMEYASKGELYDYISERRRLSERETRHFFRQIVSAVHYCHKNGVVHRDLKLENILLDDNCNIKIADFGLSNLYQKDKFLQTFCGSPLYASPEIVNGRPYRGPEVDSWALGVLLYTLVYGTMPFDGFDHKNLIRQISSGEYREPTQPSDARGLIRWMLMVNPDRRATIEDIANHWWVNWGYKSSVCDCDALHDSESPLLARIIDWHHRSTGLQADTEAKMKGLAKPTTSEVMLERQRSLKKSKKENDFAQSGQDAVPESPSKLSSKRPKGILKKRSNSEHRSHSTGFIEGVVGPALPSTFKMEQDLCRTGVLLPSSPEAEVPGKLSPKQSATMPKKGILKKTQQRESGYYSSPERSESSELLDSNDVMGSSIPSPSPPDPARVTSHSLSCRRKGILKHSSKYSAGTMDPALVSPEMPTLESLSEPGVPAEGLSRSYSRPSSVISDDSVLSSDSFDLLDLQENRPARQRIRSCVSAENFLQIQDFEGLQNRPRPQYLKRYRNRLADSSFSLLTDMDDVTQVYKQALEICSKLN

| compound | targetUnderTest | pIC50 |
| --- | --- | --- |
| CN1C[C@H]2C[C@@H]1CN2c1ccc(Nc2ncc(Cl)c(Nc3sccc3C(N)=O)n2)c(OC(F)F)c1 [Compound I-18] | UniProt O60285 | 7.00 to 7.96 |
| CN1CCN(C2CCN(c3ccc(Nc4ncc(Cl)c(N[C@@H]5CCC[C@@H]5C(N)=O)n4)c(OC(F)F)c3)CC2)CC1 [Compound I-83] | UniProt O60285 | 7.00 to 7.96 |
| CN1CCN(c2ccc(Nc3ncc(F)c(Nc4ccsc4C(N)=O)n3)c(OC(F)F)c2)CC1 [Compound I-37] | UniProt O60285 | 7.00 to 7.96 |
| CN1CCN(c2ccc(Nc3ncc(Cl)c(Nc4ccsc4C(N)=O)n3)c(OC(F)(F)F)c2)CC1 [Compound I-10] | UniProt O60285 | 7.00 to 7.96 |
| NC(=O)c1ccsc1Nc1nc(Nc2ccc(N3CCCC3)cc2OC(F)F)ncc1Cl [Compound I-31] | UniProt O60285 | 6.00 to 7.00 |
| C[C@H]1CN(C)CCN1c1ccc(Nc2ncc(Cl)c(Nc3ccsc3C(N)=O)n2)c(OC(F)F)c1 [Compound I-29] | UniProt O60285 | 7.00 to 7.96 |
